Tested on: Mus musculus
Assay: Toxicity in C57BL/6 mouse assessed as abnormal behavior at 677 to 2000 mg/kg, ig measured continuously during first 4 hrs, intermittently for following 24 hrs and occasionally thereafter for 14 consecutive days
Format: organism-based
Details: in vivo, po
reported-property: Activity

>  <structure-notation>
Cl.Oc1cccc2ccc(-c3cc4ccc5c(c4[nH]3)OCO5)nc12

>  <result>
Non-Toxic

$$$$
>  <structure-notation>
Cl.Oc1ccc2[nH]c(-c3ccc4c(Cl)cc(Cl)c(O)c4n3)cc2c1

>  <result>
Non-Toxic

$$$$
>  <structure-notation>
Cl.Oc1c(Cl)cc(Cl)c2ccc(-c3cc4cc(Cl)ccc4[nH]3)nc12

>  <result>
Non-Toxic

$$$$
>  <structure-notation>
Cl.Oc1c(Cl)cc(Cl)c2ccc(-c3cc4cc5c(cc4[nH]3)OCO5)nc12

>  <result>
Non-Toxic

$$$$

---

System: Mus musculus
Assay: Toxicity in C57BL/6 mouse assessed as effect on food intake at 677 to 2000 mg/kg, ig measured continuously during first 4 hrs, intermittently for following 24 hrs and occasionally thereafter for 14 consecutive days
Type: organism-based
Settings: in vivo, po

>  <structure-notation>
Cl.Oc1c(Cl)cc(Cl)c2ccc(-c3cc4cc5c(cc4[nH]3)OCO5)nc12

>  <Activity>
Non-Toxic

$$$$
>  <structure-notation>
Cl.Oc1ccc2[nH]c(-c3ccc4c(Cl)cc(Cl)c(O)c4n3)cc2c1

>  <Activity>
Non-Toxic

$$$$
>  <structure-notation>
Cl.Oc1c(Cl)cc(Cl)c2ccc(-c3cc4cc(Cl)ccc4[nH]3)nc12

>  <Activity>
Non-Toxic

$$$$
>  <structure-notation>
Cl.Oc1cccc2ccc(-c3cc4ccc5c(c4[nH]3)OCO5)nc12

>  <Activity>
Non-Toxic

$$$$

---

Experiment: Permeability of compound at 100 ug/ml after 10 hrs by PAMPA assay
Type: ADME
Conditions: read-out: permeability
Classification field: enter Met for Papp at 10 h, 100 ug/ml values not below 10 ×10⁻⁶ cm/s, Not met for values below it.

>  <structure-notation>
Oc1ccc2[nH]c(-c3ccc(O)c4ncccc34)cc2c1

>  <category>
Not met

$$$$

### Prompt Determine whether measured Papp at 10 h, 100 ug/ml meets or exceeds 10 ×10⁻⁶ cm/s for Oc1ccc2[nH]c(-c3ccc4cccc(O)c4n3)cc2c1
### Response Met

### Prompt Now consider COc1cc2[nH]c(-c3ccc4c(Cl)cc(Cl)c(O)c4n3)cc2cc1O and answer again.
### Response Not met

---

Test system: Mus musculus
Assay: Toxicity in C57BL/6 mouse assessed as macroscopic abnormalities of lung at 677 to 2000 mg/kg, ig after 14 consecutive days
Assay type: organism-based
Details: in vivo, po, 336 h

>  <structure-notation>
Cl.Oc1cccc2ccc(-c3cc4ccc5c(c4[nH]3)OCO5)nc12

>  <Activity>
Non-Toxic

$$$$
>  <structure-notation>
Cl.Oc1ccc2[nH]c(-c3ccc4c(Cl)cc(Cl)c(O)c4n3)cc2c1

>  <Activity>
Non-Toxic

$$$$
>  <structure-notation>
Cl.Oc1c(Cl)cc(Cl)c2ccc(-c3cc4cc(Cl)ccc4[nH]3)nc12

>  <Activity>
Non-Toxic

$$$$
>  <structure-notation>
Cl.Oc1c(Cl)cc(Cl)c2ccc(-c3cc4cc5c(cc4[nH]3)OCO5)nc12

>  <Activity>
Non-Toxic

$$$$
